system: HeLa MZ; assay: LBPA endosome anti-LBPA integrated intensity (sum per cell), Z-score; higher = more LBPA staining; conditions: compound concentration in added solution (µM; 5 µl added to 20 µl cells): 10; 18 h
Where a name gives a salt, the structure may show the parent alone.
experimental-readout: LBPA endosome anti-LBPA integrated intensity (z-score)
One number for each entry.

Respectfully, I request LBPA endosome anti-LBPA integrated intensity (z-score) for each entry included below.
1. CC(=O)CCCCn1c(=O)c2c(ncn2C)n(C)c1=O [Pentoxifylline]
2. CCOC(=O)O[C@]1(C(=O)COC(=O)CC)CC[C@H]2[C@@H]3CCC4=CC(=O)C=C[C@]4(C)[C@H]3[C@@H](O)C[C@@]21C [Prednicarbate]
3. N#CC(c1ccc(Cl)cc1)c1c(Cl)cc(-n2ncc(=O)[nH]c2=O)cc1Cl (stereo not drawn) [Diclazuril]
4. C[n+]1ccccc1/C=N/O [Pralidoxime chloride]
5. CO/N=C(\C(=O)N[C@@H]1C(=O)N2C(C(=O)O)=C(COC(C)=O)CS[C@H]12)c1csc(N)n1 [Cefotaxime sodium salt]
6. CC(=O)OC(C)C[N+](C)(C)C (stereo not drawn) [Methacholine chloride]

Data returned:
-0.115
-0.375
0.505
-0.678
-0.201
0.107

Batch: LBPA endosome anti-LBPA integrated intensity (z-score) for all items listed.
1. Cc1ccnc(NS(=O)(=O)c2ccc(N)cc2)n1 [Sulfamerazine]
2. CC(C)N1CCN(c2ccc(OCC3COC(Cn4cncn4)(c4ccc(Cl)cc4Cl)O3)cc2)CC1 (stereo not drawn) [Terconazole]

Data returned:
1. -1.13
2. 2.49
